Biological target: T1, Human PSMA antigen (human, UniProt Q04609 44-750, limits assumed)
T1 construct: This is the antigen immobilised on the Biacore chip; also called FOLH1_HUMAN
T1 sequence (Q04609 44-750 limits assumed): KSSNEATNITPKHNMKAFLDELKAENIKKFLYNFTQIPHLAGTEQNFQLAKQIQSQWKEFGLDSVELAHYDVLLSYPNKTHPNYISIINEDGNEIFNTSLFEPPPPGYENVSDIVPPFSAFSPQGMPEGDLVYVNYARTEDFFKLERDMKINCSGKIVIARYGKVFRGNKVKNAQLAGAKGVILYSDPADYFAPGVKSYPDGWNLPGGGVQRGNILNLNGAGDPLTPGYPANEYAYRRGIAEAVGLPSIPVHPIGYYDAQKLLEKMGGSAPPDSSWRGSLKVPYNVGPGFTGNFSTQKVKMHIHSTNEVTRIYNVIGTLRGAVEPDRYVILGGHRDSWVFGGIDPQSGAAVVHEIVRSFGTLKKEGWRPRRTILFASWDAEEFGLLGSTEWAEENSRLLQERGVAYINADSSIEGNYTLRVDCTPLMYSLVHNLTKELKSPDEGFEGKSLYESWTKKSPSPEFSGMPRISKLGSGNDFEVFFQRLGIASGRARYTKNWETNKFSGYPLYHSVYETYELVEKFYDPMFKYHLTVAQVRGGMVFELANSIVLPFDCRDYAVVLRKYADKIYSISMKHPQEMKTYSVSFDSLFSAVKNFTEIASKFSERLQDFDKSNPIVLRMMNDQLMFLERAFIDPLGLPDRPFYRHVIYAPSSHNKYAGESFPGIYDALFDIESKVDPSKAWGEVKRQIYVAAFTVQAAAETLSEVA
Experiment: SPR (Biacore), 37 C, antibody over immobilized PSMA
result type: fold-change KD relative to chimeric (fold)
One number for each entry, in fold.

Can you give me fold-change KD relative to chimeric for all of these, one by one?
1. huJ591 (J591_VH-3 + J591_VL-2) (antibody, human IgG1, V domains shown, One of the 9 huJ591 versions; Human IgG1 frameworks) VH: QVQLVQSGAEVKKPGASVKVSCKASGYTFTEYTMHWVRQAPGQRLEWMGNINPNNGGTTYSQKFQGRVTITVDKSASTAYMELSSLRSEDTAVYYCAAGWNFDYWGQGTLVTVSS VL: DIQLTQSPSFLSASVGDRVTITCRASQDVGTALDWYQQKPGKAPKLLIYWASTRHSGVPSRFSGSGSGTEFTLTISSLQPEDFATYYCQQYNSYPLTFGQGTKLEIK
2. huJ591 (J591_VH-1 + J591_VL-1) (antibody, human IgG1, V domains shown, One of the 9 huJ591 versions made from three heavy and three light chain designs; Human IgG1 frameworks, expressed in CHO cells) VH: QVQLVQSGAEVKKPGASVKVSCKASGYTFTEYTMHWVRQAPGQGLEWMGNINPNNGGTTYAQKFQGRVTMTRDKSISTAYMELSRLRSDDTAVYYCAAGWNFDYWGQGTLVTVSS VL: DIQLTQSPSFLSASVGDRVTITCRASQDVGTALDWYQQKPGKAPKLLIYWASTLHSGVPSRFSGSGSGTEFTLTISSLQPEDFATYYCQQYNSYPLTFGQGTKLEIK

# output
1. 12.3
2. 16.1
